- assayComment: self-splicing fitness, log relative to wild type (ln ratio); higher = more splicing; Tetrahymena group I intron in knt gene, E. coli kanamycin selection, DiMSum; sequences stand for … in CUCUCU…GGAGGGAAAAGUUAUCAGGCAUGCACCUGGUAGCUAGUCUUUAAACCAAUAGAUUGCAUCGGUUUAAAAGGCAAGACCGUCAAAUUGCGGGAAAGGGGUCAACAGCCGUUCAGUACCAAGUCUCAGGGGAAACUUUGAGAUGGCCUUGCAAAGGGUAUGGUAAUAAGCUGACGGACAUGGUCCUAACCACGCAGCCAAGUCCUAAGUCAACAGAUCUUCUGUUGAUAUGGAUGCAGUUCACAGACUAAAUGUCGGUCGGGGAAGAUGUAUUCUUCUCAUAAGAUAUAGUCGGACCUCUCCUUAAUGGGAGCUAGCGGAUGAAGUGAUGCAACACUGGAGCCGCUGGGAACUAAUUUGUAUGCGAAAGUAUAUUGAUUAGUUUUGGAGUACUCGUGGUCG;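 further: selection with 25 µg/mL kanamycin versus none on LB agar overnight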
- measurementParameters: 37 °C
Category scheme (self-splicing fitness (ln)): low end: < -2; middle: ≥ -2 and < -0.2; high end: ≥ -0.2

Previously resolved entries follow.
> print(dat)
            sequencecode  category
 1  AAAUAGCAAUAUUACGAUUG    middle
 2  CUUGAGCAAUAUUACGUUUG   low end
 3  GUUAAGCAAUAUUACGUACA    middle
 4  GUACAGCAAUAUUACGUUUG   low end
 5  UGACAGCAAUAUUACGGAGC   low end
 6  AGAUAGCAAUAUUACGGACC    middle
 7  UAUCAGCAAUAUUACGUGAA  high end
 8  UCUUAGCAAUAUUACGCACA    middle
 9  UAGGAGCAAUAUUACGAGGU   low end
10  GCUAAGCAAUAUUACGAUAU  high end

Now for a further sequence.
Band for UAGUAGCAAUAUUACGCAGU ?
middle
